# method notes: Particle size analysis, Malvern Mastersizer 2000
# Type: physicochemical
# test conditions: dispersant 0.2% (w/v) Igepal in RO water
measured endpoint: Particle Size Parameter D10 (µm)
Give bare numbers, in µm.

Prompt line: Request the reported Particle Size Parameter D10 associated with COc1ccc(COc2ccc(Cn3c(N)nc4cc(-c5cnn(C)c5)cnc43)cc2OC)cc1 [Particles Prepared in Part I, monohydrate]
Response line: 18.6
